Test system: HT-29 Colon (human colon tumor)
Assay: Tumor Panel Screen, Resazurin cytotoxicity assay
Type: cell-based
quantityKind: pIC50
Reminder that pIC50 is minus the log10 of a molar concentration.

Prompt: Under HT-29 Colon (human colon tumor): pIC50 value of CC(C)(C)c1[nH]cnc1/C=C1\NC(=O)[C@H](Cc2ccccc2)NC1=O [t-butyl-phenylahistin] ?
Completion: 6.38

---

System: DMS114
Test: HCC panel assay, sulforhodamine B
Assay type: cell-based
Conditions: Homo sapiens, DMS-114; DMS114, Lung; (−)-PLH content 24.1%; read-out: GL50 (the source's name)
quantityKind: IC50 (nM)
# value in nM; strip the unit string

Prompt: Under DMS114: IC50 value of C=CC(C)(C)c1[nH]cnc1/C=C1\NC(=O)[C@H](Cc2ccccc2)NC1=O (racemic) ?
Completion: 330

These data points were gathered from patent US20040102454A1.
